What follows is literature data on IC50 for PIK3CA (human).
One number for each entry, in µM.

COc1ncc(-c2cc(OCC3CCOCC3)c3nc(N)nc(C)c3c2)cc1NS(C)(=O)=O : 0.0033
O=S(=O)(Nc1cc(-c2ccc3nccc(-c4ccc(Cn5cncn5)cc4)c3c2)cnc1Cl)c1ccc(F)cc1 : 0.00073
Cn1cc(/C=C2\Oc3ccc(NC(=O)Nc4ccccc4)cc3C2=O)c2c(N3CC4CCC(C3)O4)ccnc21 : 0.498
Cn1nc(C2CCN(C(=O)C(C)(C)O)CC2)nc1-c1cnc(N)c(-c2nnc(C(C)(C)C)o2)n1 : 0.037
Cn1ncc2c(Nc3ccc(C(N)=O)cc3)nc(-c3cccc(Cl)c3)nc21 : 0.04
COc1cccc(-c2nc(Oc3ccc(OC)c(OC)c3)c3cnn(C)c3n2)c1 : 0.653

Please state IC50 for every molecule in the list that follows.
1. CNC(=O)C(C)Cn1cnc2ccc(-c3cnc(OC)c(NS(=O)(=O)c4cc(Cl)c(F)cc4F)c3)cc2c1=O (single isomer, unassigned)
2. Cn1cc(CNc2cccc(Oc3cc(=O)[nH]c4ccccc34)c2)cn1
3. COc1ncc(-c2ccc3ncn(CC(C)(C)C(N)=O)c(=O)c3c2)cc1NS(=O)(=O)c1ccc(F)cc1Cl
4. O=c1cc(Oc2cccc(-c3cccs3)c2)c2ccccc2[nH]1
5. C[C@H]1COCCN1c1cc(-n2c(C(F)F)nc3ccccc32)nc(NCC2CCN(C(=O)OC(C)(C)C)CC2)n1
6. C[C@H](Nc1ccc2c(c1)OCCn1cc(N3C(=O)OC[C@H]3CC#N)nc1-2)C(N)=O

Reply |
1: 0.00477; 2: 4.79; 3: 0.0102; 4: 2.69; 5: 0.98; 6: 0.0013

Ask | Please report IC50 for the following molecule: CC(N(C)[C@H]1CC[C@H](CNc2nc(N3CCOC[C@H]3C)cc(-n3c(C(F)F)nc4ccccc43)n2)CC1)C(C)(C)O (some centres unmarked)
Reply | 0.59

----------
What follows is literature data on IC50 for UniProt:P42336.

In the examples that follow, each entry is paired with its recorded IC50.
Nc1nc2cc(-c3ccc4nccc(CCN5CCOCC5)c4c3)ccc2o1 : < 1000 nM
Cc1cccc2cc([C@H](C)Nc3ncnc4[nH]cc(Br)c34)n(C3CC3)c(=O)c12 : < 1000 nM
NC(=O)C1CCN(C(=O)N2CCOc3ccc(-c4cnc5nc(N)[nH]c5c4)cc3C2)CC1 : ≤ 75 nM
COCCNC(=O)c1ccc(-c2ccnc3c2c(/C=C2\Oc4cccc(O)c4C2=O)cn3C)cc1 : 48 nM
C[C@H](Nc1ccnc2scnc12)c1cc2cccc(C(F)(F)F)c2c(=O)n1-c1ccccc1 : 1000 to 10000 nM
Cc1nc(N)ncc1-c1nc(N2CCOCC2)c2nc(N3C[C@@H](C)N[C@@H](C)C3)n(CC3CC3)c2n1 : 20 to 50 nM
Nc1nc2cc(-c3ccc4ncc(C(=O)N5CC(F)(F)C5)n4c3)ccc2o1 : < 100 nM

Let us examine a further case.
Ask | Please report IC50 for the following compound: Cn1cc(/C=C2\Oc3ccc(NC(=O)Nc4nc5ccccc5n4C)cc3C2=O)c2c(N3CC4CCC(C3)O4)ccnc21
Reply | 5710 nM

----------
What follows is literature data on pIC50 for PIK3CA (human).
pIC50: −log10 of the molar value.

CN(C)Cc1ccc(-c2ccnc3c2c(/C=C2\Oc4cccc(O)c4C2=O)cn3C)cc1 : 7.00

Please state pIC50 for every molecule in the list that follows.
1. CC(C)(C)OC(=O)N1CCN(c2ccc(-c3cccc(Oc4cc(=O)[nH]c5ccccc45)c3)cn2)CC1
2. Cc1cccc2cc(C(C)Nc3ncnc4[nH]cnc34)n(-c3ccc(F)cc3)c(=O)c12 (centres unmarked)
3. CC(C)N1CCN(C(=O)c2ccc(NC(=O)Nc3ccc(Nc4nc(Nc5ccc(C(N)=O)cc5)c5cnn(C)c5n4)cc3)cc2)CC1
4. CN1CCN(C2CN(c3cnc4ccc(-c5ccc6oc(N)nc6c5)nc4c3)C2)CC1(C)C
5. CN1CC2CN(c3cnc4ccc(-c5ccc6oc(N)nc6c5)nc4c3)CC2C1 (centres unmarked)

Reply |
["< 5.00", "> 5.00", 9.40, "> 7.00", "> 7.00"]

Please state pIC50 for every molecule in the list that follows.
1. Cn1cc(-c2ccc(Oc3cc(=O)[nH]c4ccccc34)cc2)cn1
2. Nc1nc2cc(-c3ccc4ncc(NC5CCOCC5)nc4c3)ccc2o1

Reply |
1. 5.64
2. > 7.00

----------
What follows is literature data on IC50 for PIK3CA (human).

Nc1nc2cc(-c3ccc4ncc(N5CCC(n6cccn6)CC5)nc4c3)ccc2o1 : < 100 nM
Cn1cc(/C=C2\Oc3cccc(O)c3C2=O)c2c(O)ccnc21 : 479 nM
Cn1cc(/C=C2\Oc3cccc(O)c3C2=O)c2c(-c3cccc(C(F)(F)F)c3)ccnc21 : 386 nM

Please state IC50 for every molecule in the list that follows.
1. CS(=O)(=O)Nc1ccc(-c2ccnc3ccc(-c4cncc(S(N)(=O)=O)c4)nc23)cc1
2. N#CCc1cccc(Oc2cc(=O)[nH]c3ccccc23)c1
3. Nc1nc2cc(-c3ccc4ncc(-c5ccccc5)nc4c3)ccc2o1
4. COc1ccc2[nH]cc(/C=C3\Oc4cc(O)cc(O)c4C3=O)c2n1
5. Cn1cc(/C=C2\Oc3ccc(C(=O)O)cc3C2=O)c2c(N3CC4CCC(C3)O4)ccnc21

Reply |
["6 nM", "5800 nM", "< 1000 nM", "233 nM", "2370 nM"]

Please state IC50 for every molecule in the list that follows.
1. O=c1cc(Oc2cccc(NCc3ccccc3N3CCOCC3)c2)c2ccccc2[nH]1
2. CN(C)C/C=C/C(=O)Nc1cccc(-c2cccc(Oc3cc(=O)[nH]c4ccccc34)c2)c1
3. Cc1ncc(-c2ccc3ncn(CCCC(=O)N4CCCC4)c(=O)c3c2)cc1NS(=O)(=O)c1ccc(F)cc1Cl
4. CC(C)n1c([C@H](C)NC(=O)c2c(N)nn3cccnc23)cc2cccc(Cl)c2c1=O

Reply |
1. 5620 nM
2. 12000 nM
3. 4.39 nM
4. 1000 to 10000 nM

Please state IC50 for every molecule in the list that follows.
1. COc1cc(-c2cccc3nc([C@H](C)NC(=O)c4c(N)nn5cccnc45)n(-c4ccccc4)c(=O)c23)ccn1
2. Cc1nc2ccc(-c3ccc4c(c3)CN(C(=O)N3CCN(c5ccccc5)CC3)CCO4)cc2[nH]1
3. C[C@H](Nc1ncnc2cccnc12)c1cc2cccc(Cl)c2c(C(=O)N2CCC(O)CC2)n1
4. CNC(=O)Nc1ccc(-c2nc(N3CCOC[C@@H]3C)nc3c2cnn3CC(C)(C)O)cc1
5. CNC(=O)Nc1cccc(-c2nc(Nc3ccc(C(N)=O)cc3)c3cnn(C)c3n2)c1

Reply |
1: 100 to 1000 nM; 2: 500 to 1000 nM; 3: < 10000 nM; 4: > 100 nM; 5: 277 nM

----------
What follows is literature data on IC50 for PIK3CA (human).
Numbers only, in nM.

Cn1cc(/C=C2\Oc3ccc(NC(=O)Nc4ccc(F)nc4)cc3C2=O)c2c(N3CC4CCC(C3)O4)ccnc21 : 274

Please state IC50 for every molecule in the list that follows.
1. CCNc1cnc2ccc(-c3cnc(N)c(S(=O)(=O)N(C)C)c3)cc2n1
2. O=c1cc(Oc2cccc(-c3ccnc(N4CCNCC4)c3)c2)c2ccccc2[nH]1
3. Cc1nn(C)cc1-c1cc(N2CCOCC2)c2nc(C(=O)N3CCC(N4CCOCC4)CC3)[nH]c2n1

Reply |
[8, 15000, 971]

----------
What follows is literature data on IC50 for PIK3CA (human).

In the examples that follow, each entry is paired with its recorded IC50.
COc1ncc(-c2cccc3cc([C@H](C)Nc4ncnc5scnc45)n(-c4ccon4)c(=O)c23)cn1 : 1 to 10 µM
Nc1nc2cc(-c3ccc4sc(N)nc4c3)ccc2o1 : < 10 µM
Nc1ncc(-c2nc(N3CCOCC3)nc3c2cnn3CC(=O)N2CCOCC2)cn1 : 0.1 to 10 µM
Nc1ncc(-c2cc(Oc3ccccc3)cc(N3CCOCC3)n2)s1 : 3.42 µM
Nc1nc2cc(-c3ccc4ncc(C(=O)N5CCN(CC6CC6)CC5)n4c3)ccc2o1 : < 1 µM

Please state IC50 for every molecule in the list that follows.
1. Cc1nc2ccc(-c3ccc4c(c3)CN(C(=O)N3CCCCC3c3cc(F)cc(F)c3)CCO4)cc2[nH]1 (stereo not drawn)
2. O=c1cc(Oc2cccc(-c3cn[nH]c3)c2)c2ccccc2[nH]1
3. COc1ncc(-c2ccc3ncn(C4CCN(C)CC4)c(=O)c3c2)cc1NS(C)(=O)=O
4. COc1ncc(-c2ccc3ncc4nc(C)n(C)c4c3n2)cc1NS(=O)(=O)c1ccc(F)cc1F
5. COc1ncc(-c2cnc3[nH]cc(C(=O)c4c(F)ccc(NS(=O)(=O)CCC(F)(F)F)c4F)c3c2)cn1
6. Cc1nc2cnc3ccc(-c4cnc(N)c(C(F)(F)F)c4)nc3c2n1C1CCN(CCO)CC1
7. CN(C)CC(=O)Nc1ccc2[nH]c(=O)cc(Oc3ccccc3)c2c1

Reply |
1. ≤ 0.075 µM
2. 3.9 µM
3. < 0.1 µM
4. < 0.1 µM
5. ≤ 10 µM
6. < 0.1 µM
7. > 10 µM

Please state IC50 for every molecule in the list that follows.
1. COC(=O)Nc1nc2cc(-c3ccc4c(c3)CN(c3ccnc5ccccc35)CCO4)ccc2n1C
2. C[C@@H]1CN(c2cnc3ccc(-c4ccc5oc(N)nc5c4)cc3n2)C[C@H](C)O1
3. COCCN(C)CCCNC(=O)Nc1ccc2c(c1)C(=O)/C(=C/c1cn(C)c3nccc(N4CC5CCC(C4)O5)c13)O2
4. COc1ncc(-c2cc(OC3CCOCC3)c3ncnc(C)c3c2)cc1NS(=O)(=O)C1CC1
5. CS(=O)(=O)N1CCN(c2nc3c(N4CCOCC4)nc(-c4cnc(N)nc4)nc3n2CC(F)F)CC1
6. Cc1cccnc1-n1c(Cn2nc(I)c3c(N)ncnc32)cc2cccc(C)c2c1=O

Reply |
1: 1 to 2 µM; 2: < 1 µM; 3: 0.243 µM; 4: 0.0021 µM; 5: 0.01 to 0.02 µM; 6: > 10 µM
